What MIC90 was measured for each of the following?
Test system: Staphylococcus haemolyticus
method_summary: Antibacterial activity against Staphylococcus haemolyticus
Assay type: functional

Look over these answered cases.
molecule	reported_result
Cc1c(N2CC[C@@H]([C@H](C)N)C2)c(F)cc2c(=O)n(N)c(=O)n(C3CC3)c12	0.5 µg/mL
COc1c(N2CCNC(C)C2)c(F)cc2c(=O)c(C(=O)O)cn(C3CC3)c12 (stereo not given)	4 µg/mL
Cc1c(N2CC[C@@H]([C@H](C)N)C2)c(F)cc2c(=O)[nH]c(=O)n(C3CC3)c12	1 µg/mL
C[C@H]1NCc2cc(-c3ccc4c(=O)c(C(=O)O)cn(C5CC5)c4c3OC(F)F)ccc21	4 µg/mL

Switching to the query record.
Query :: Name the recorded MIC90 of C[C@H]1COc2c(N3CCN(C)CC3)c(F)cc3c(=O)c(C(=O)O)cn1c23.C[C@H]1COc2c(N3CCN(C)CC3)c(F)cc3c(=O)c(C(=O)O)cn1c23.O , assay system Staphylococcus haemolyticus.
Result :: 32 µg/mL

###

System: Corynebacterium jeikeium
method_summary: Antibacterial activity against Corynebacterium jeikeium
Format: functional
property: MIC50 (µg/mL)
Answers are plain numbers, in µg/mL.

compound	endpoint_unit	MIC50
C[C@H]1COc2c(N3CCN(C)CC3)c(F)cc3c(=O)c(C(=O)O)cn1c23.C[C@H]1COc2c(N3CCN(C)CC3)c(F)cc3c(=O)c(C(=O)O)cn1c23.O	µg/mL	0.25
COc1c(N2CCNC(C)C2)c(F)cc2c(=O)c(C(=O)O)cn(C3CC3)c12 (stereo not given)	µg/mL	0.125
Cc1c(N2CC[C@@H]([C@H](C)N)C2)c(F)cc2c(=O)n(N)c(=O)n(C3CC3)c12	µg/mL	0.25

// input: 2 compounds below; output: MIC50 for each
1. C[C@H]1NCc2cc(-c3ccc4c(=O)c(C(=O)O)cn(C5CC5)c4c3OC(F)F)ccc21
2. Cc1c(N2CC[C@@H]([C@H](C)N)C2)c(F)cc2c(=O)[nH]c(=O)n(C3CC3)c12

Result ::
1: 0.25; 2: 0.5

###

Tested on: Hoylesella oralis
method_summary: Antibacterial activity against Prevotella oralis
Format: functional
property: MIC90
Output should be the measured figure followed by the unit it is expressed in.

Look over these answered cases.
molecule	MIC90
C[C@H]1COc2c(N3CCN(C)CC3)c(F)cc3c(=O)c(C(=O)O)cn1c23.C[C@H]1COc2c(N3CCN(C)CC3)c(F)cc3c(=O)c(C(=O)O)cn1c23.O [LEVOFLOXACIN]	2 µg/mL
C[C@H]1NCc2cc(-c3ccc4c(=O)c(C(=O)O)cn(C5CC5)c4c3OC(F)F)ccc21 [GARENOXACIN]	1 µg/mL
COc1c(N2CCNC(C)C2)c(F)cc2c(=O)c(C(=O)O)cn(C3CC3)c12 (stereo not given) [GATIFLOXACIN]	0.5 µg/mL
Cc1c(N2CC[C@@H]([C@H](C)N)C2)c(F)cc2c(=O)[nH]c(=O)n(C3CC3)c12	2 µg/mL

Switching to the query record.
Query :: Please supply the value of reported MIC90 for the item Cc1c(N2CC[C@@H]([C@H](C)N)C2)c(F)cc2c(=O)n(N)c(=O)n(C3CC3)c12
Result :: 1 µg/mL

###

What MIC90 was measured for each of the following?
Tested on: Prevotella bivia
method_summary: Antibacterial activity against Prevotella bivia
Type: functional
Output should be the measured figure followed by the unit it is expressed in.

compound	reported_result
Cc1c(N2CC[C@@H]([C@H](C)N)C2)c(F)cc2c(=O)[nH]c(=O)n(C3CC3)c12	2 µg/mL
C[C@H]1NCc2cc(-c3ccc4c(=O)c(C(=O)O)cn(C5CC5)c4c3OC(F)F)ccc21	1 µg/mL

// input: 3 compounds below; output: MIC90 for each
1. COc1c(N2CCNC(C)C2)c(F)cc2c(=O)c(C(=O)O)cn(C3CC3)c12 (stereo not given)
2. C[C@H]1COc2c(N3CCN(C)CC3)c(F)cc3c(=O)c(C(=O)O)cn1c23.C[C@H]1COc2c(N3CCN(C)CC3)c(F)cc3c(=O)c(C(=O)O)cn1c23.O
3. Cc1c(N2CC[C@@H]([C@H](C)N)C2)c(F)cc2c(=O)n(N)c(=O)n(C3CC3)c12

Result ::
["0.5 µg/mL", "2 µg/mL", "1 µg/mL"]

###

System: Salmonella typhimurium
method_summary: Antibacterial activity against Salmonella enterica serovar Typhimurium
Assay type: functional, Salmonella enterica subsp. enterica serovar Typhimurium
property: MIC90 (µg/mL)
One number for each entry, in µg/mL.

Look over these answered cases.
compound	endpoint_unit	reported_result
C[C@H]1COc2c(N3CCN(C)CC3)c(F)cc3c(=O)c(C(=O)O)cn1c23.C[C@H]1COc2c(N3CCN(C)CC3)c(F)cc3c(=O)c(C(=O)O)cn1c23.O	µg/mL	0.06
Cc1c(N2CC[C@@H]([C@H](C)N)C2)c(F)cc2c(=O)[nH]c(=O)n(C3CC3)c12	µg/mL	4
COc1c(N2CCNC(C)C2)c(F)cc2c(=O)c(C(=O)O)cn(C3CC3)c12 (stereo not given)	µg/mL	0.06
Cc1c(N2CC[C@@H]([C@H](C)N)C2)c(F)cc2c(=O)n(N)c(=O)n(C3CC3)c12	µg/mL	1

Query :: Please supply the value of reported MIC90 for the item C[C@H]1NCc2cc(-c3ccc4c(=O)c(C(=O)O)cn(C5CC5)c4c3OC(F)F)ccc21
Result :: 0.125

###

Tested on: Legionella pneumophila
method_summary: Antibacterial activity against Legionella pneumophila
Assay type: functional
property: MIC50

// input: 3 compounds below; output: MIC50 for each
1. C[C@H]1COc2c(N3CCN(C)CC3)c(F)cc3c(=O)c(C(=O)O)cn1c23.C[C@H]1COc2c(N3CCN(C)CC3)c(F)cc3c(=O)c(C(=O)O)cn1c23.O
2. Cc1c(N2CC[C@@H]([C@H](C)N)C2)c(F)cc2c(=O)n(N)c(=O)n(C3CC3)c12
3. Cc1c(N2CC[C@@H]([C@H](C)N)C2)c(F)cc2c(=O)[nH]c(=O)n(C3CC3)c12

Result ::
8 ng/mL
250 ng/mL
500 ng/mL

// input: 2 compounds below; output: MIC50 for each
1. COc1c(N2CCNC(C)C2)c(F)cc2c(=O)c(C(=O)O)cn(C3CC3)c12 (stereo not given)
2. C[C@H]1NCc2cc(-c3ccc4c(=O)c(C(=O)O)cn(C5CC5)c4c3OC(F)F)ccc21

Result ::
1. 8 ng/mL
2. 2 ng/mL

###

Tested on: Staphylococcus aureus
method_summary: Antibacterial activity against oxacillin and levofloxacin-resistant Staphylococcus aureus
Type: functional
property: MIC90 (µg/mL)
Numbers only, in µg/mL.

Look over these answered cases.
molecule	reported_result
C[C@H]1NCc2cc(-c3ccc4c(=O)c(C(=O)O)cn(C5CC5)c4c3OC(F)F)ccc21	4
Cc1c(N2CC[C@@H]([C@H](C)N)C2)c(F)cc2c(=O)n(N)c(=O)n(C3CC3)c12	0.5
C[C@H]1COc2c(N3CCN(C)CC3)c(F)cc3c(=O)c(C(=O)O)cn1c23.C[C@H]1COc2c(N3CCN(C)CC3)c(F)cc3c(=O)c(C(=O)O)cn1c23.O	64

// input: 2 molecules below; output: MIC90 for each
1. Cc1c(N2CC[C@@H]([C@H](C)N)C2)c(F)cc2c(=O)[nH]c(=O)n(C3CC3)c12
2. COc1c(N2CCNC(C)C2)c(F)cc2c(=O)c(C(=O)O)cn(C3CC3)c12 (stereo not given)

Result ::
1. 4
2. 16

###

What MIC50 was measured for each of the following?
System: Prevotella corporis
method_summary: Antibacterial activity against Prevotella corporis
Assay type: functional
Numbers only, in µg/mL.

compound	system_under_test	MIC50 [µg/mL]
COc1c(N2CCNC(C)C2)c(F)cc2c(=O)c(C(=O)O)cn(C3CC3)c12 (stereo not given) [GATIFLOXACIN]	Prevotella corporis	0.25
C[C@H]1COc2c(N3CCN(C)CC3)c(F)cc3c(=O)c(C(=O)O)cn1c23.C[C@H]1COc2c(N3CCN(C)CC3)c(F)cc3c(=O)c(C(=O)O)cn1c23.O [LEVOFLOXACIN]	Prevotella corporis	1
Cc1c(N2CC[C@@H]([C@H](C)N)C2)c(F)cc2c(=O)[nH]c(=O)n(C3CC3)c12	Prevotella corporis	0.5
Cc1c(N2CC[C@@H]([C@H](C)N)C2)c(F)cc2c(=O)n(N)c(=O)n(C3CC3)c12	Prevotella corporis	0.25

Query :: Please supply the value of reported MIC50 for the item C[C@H]1NCc2cc(-c3ccc4c(=O)c(C(=O)O)cn(C5CC5)c4c3OC(F)F)ccc21 [GARENOXACIN]
Result :: 0.25
